# target or test system: Mu-type opioid receptor (Rattus norvegicus)
# Sequence (P33535 whole entry): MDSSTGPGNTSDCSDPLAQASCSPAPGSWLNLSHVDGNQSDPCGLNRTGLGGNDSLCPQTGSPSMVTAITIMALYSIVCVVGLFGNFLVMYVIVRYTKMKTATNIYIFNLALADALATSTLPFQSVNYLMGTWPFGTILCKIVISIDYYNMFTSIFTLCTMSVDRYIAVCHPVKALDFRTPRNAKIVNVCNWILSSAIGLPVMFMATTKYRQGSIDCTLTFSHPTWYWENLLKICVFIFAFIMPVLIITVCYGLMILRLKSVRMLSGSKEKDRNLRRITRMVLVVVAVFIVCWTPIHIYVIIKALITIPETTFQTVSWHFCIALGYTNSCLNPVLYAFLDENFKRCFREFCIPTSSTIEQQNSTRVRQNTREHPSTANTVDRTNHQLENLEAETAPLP
# assay notes: biochemical
# Type: cell-based, CHO
# reported conditions: cho
measured parameter: IC50 (nM)
A number alone suffices; assume nM.

Lookup: IC50 / Mu-type opioid receptor (Rattus norvegicus) / CC(C)C[C@@H](NC(=O)[C@@H](Cc1ccccc1)NC(=O)CNC(=O)[C@@](C)(CO)NC(=O)[C@H](N)Cc1ccc(O)cc1)C(=O)O
6.3

====

Measured IC50 values are reported for all entries that follow.
# target or test system: Delta-type opioid receptor (Rattus norvegicus)
# Sequence (P33533 whole entry): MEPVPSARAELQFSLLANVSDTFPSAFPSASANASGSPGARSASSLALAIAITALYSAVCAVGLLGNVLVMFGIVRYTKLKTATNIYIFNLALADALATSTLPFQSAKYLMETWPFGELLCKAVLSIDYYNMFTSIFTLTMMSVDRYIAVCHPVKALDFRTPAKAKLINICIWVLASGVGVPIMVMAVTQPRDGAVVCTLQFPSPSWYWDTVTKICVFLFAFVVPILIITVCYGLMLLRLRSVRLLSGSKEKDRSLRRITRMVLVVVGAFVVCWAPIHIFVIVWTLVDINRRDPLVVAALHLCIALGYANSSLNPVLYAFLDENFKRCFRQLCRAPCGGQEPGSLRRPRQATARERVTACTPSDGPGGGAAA
# assay notes: biochemical
# Assay type: cell-based, CHO
# Description: Binding affinity against rat Opioid receptor delta 1 expressed in CHO cells determined by competitive inhibition of 1 nM [3H]DPDPE.
Starred links: 1 amine or outer side, 2 acyl side, 3 side chain; linkers in the order of their positions; H or OH if unused. Non-standard residues stand in square brackets, D forms with d. Residues, ends and D or L forms follow the SMILES beside them. X1 = O=C([C@@]1(N[*:1])CCCC[C@@H]1O)[*:2]; X2 = O=C([C@@]1(N[*:1])CCCC[C@H]1O)[*:2]; X3 = O=C([C@@]1(N[*:1])CCC[C@@H]1O)[*:2]
A number alone suffices; assume nM.

CC(C)C[C@H](NC(=O)[C@H](Cc1ccccc1)NC(=O)CNC(=O)[C@@]1(NC(=O)[C@@H](N)Cc2ccc(O)cc2)CCCC[C@H]1O)C(=O)O (H-Y[X2]GFL-OH)    1
CC(C)C[C@H](NC(=O)[C@H](Cc1ccccc1)NC(=O)CNC(=O)[C@@]1(NC(=O)[C@@H](N)Cc2ccc(O)cc2)CCCC[C@@H]1O)C(=O)O (H-Y[X1]GFL-OH)    0.01
CC(C)C[C@H](NC(=O)[C@H](Cc1ccccc1)NC(=O)CNC(=O)[C@@]1(NC(=O)[C@@H](N)Cc2ccc(O)cc2)CCC[C@@H]1O)C(=O)O (H-Y[X3]GFL-OH)    0.04

Now consider the entry below.
Lookup: IC50 / Delta-type opioid receptor (Rattus norvegicus) / CC(C)C[C@H](NC(=O)[C@H](Cc1ccccc1)NC(=O)CNC(=O)C(C)(C)NC(=O)[C@@H](N)Cc1ccc(O)cc1)C(=O)O (single isomer, unassigned)
50

Values compiled from ChEMBL document CHEMBL1130911.
